- Test system: Zika virus NS2B-NS3 protease (unlinked complex)
- PROCEDURE_DETAILS: Primary screen GU Rhodamine qHTS for Zika virus inhibitors: Unlinked NS2B-NS3 protease assay (AID 1347159); also: nearly all actives have a fitted effect of over 60% in size
- CONDITION_INFO: Recombinant ZIKV NS2B-NS3 protease, Rhodamine110 substrate fluorescence; series mostly up to 107 µM
Records with an inconclusive call do not appear. The source made the active and inactive calls. Calls follow the shape of the dose curve; as a rule, active = well fitted inhibition curve with a large enough effect; inconclusive = small, poorly fitted or top-dose-only effect; inactive = no such curve, though single readings can be large or run the other way.
Your response should consist of one outcome taken from 1.0 for active, 0.0 for inactive

Solved entries (count: 5):
{"COMPOUND": "O=C(O)Cc1cc(I)c(Oc2ccc(O)c(I)c2)c(I)c1", "ASSAYED_SYSTEM": "Zika virus NS2B-NS3 protease (unlinked complex)", "ASSIGNED_CLASS": 1.0}
{"COMPOUND": "N[C@@H](Cc1cc(I)c(Oc2ccc(O)c(I)c2)c(I)c1)C(=O)O", "ASSAYED_SYSTEM": "Zika virus NS2B-NS3 protease (unlinked complex)", "ASSIGNED_CLASS": 1.0}
{"COMPOUND": "CCN(CC)CCOCCOC(=O)C(CC)(CC)c1ccccc1", "ASSAYED_SYSTEM": "Zika virus NS2B-NS3 protease (unlinked complex)", "ASSIGNED_CLASS": 0.0}
{"COMPOUND": "CC(=O)Nc1ccc(NC(=S)NC(=O)c2ccc(C(C)(C)C)cc2)cc1", "ASSAYED_SYSTEM": "Zika virus NS2B-NS3 protease (unlinked complex)", "ASSIGNED_CLASS": 0.0}
{"COMPOUND": "C[C@H]1O[C@@H](O[C@H]2[C@@H](O)C[C@H](O[C@H]3[C@@H](O)C[C@H](O[C@H]4CC[C@@]5(C)[C@H](CC[C@@H]6[C@@H]5C[C@@H](O)[C@]5(C)[C@@H](C7=CC(=O)OC7)CC[C@]65O)C4)O[C@@H]3C)O[C@@H]2C)C[C@H](O)[C@@H]1O", "ASSAYED_SYSTEM": "Zika virus NS2B-NS3 protease (unlinked complex)", "ASSIGNED_CLASS": 0.0}

Problem: Lab log entry: CC(C)(C)c1ccc(CN2CCN(C(c3ccccc3)c3ccc(Cl)cc3)CC2)cc1 (centres undefined) — outcome as called in the assay?
Result: 0.0

Problem: Lab log entry: `C=C1CC[C@H](O)CC1=C/C=C1\CCC[C@]2(C)[C@@H]([C@H](C)/C=C/[C@H](C)C(C)C)CC[C@@H]12` — outcome as called in the assay?
Result: 1.0

Problem: Lab log entry: `COc1ccc(C[C@H](C)NC[C@@H](O)c2ccc(O)c(NC=O)c2)cc1` — outcome as called in the assay?
Result: 0.0

Problem: Lab log entry: `C=C1[C@H](CO)[C@@H](O)C[C@@H]1n1cnc2c(=O)[nH]c(N)nc21` — outcome as called in the assay?
Result: 0.0
